B1: library; numbered along this chain (parent)
chain: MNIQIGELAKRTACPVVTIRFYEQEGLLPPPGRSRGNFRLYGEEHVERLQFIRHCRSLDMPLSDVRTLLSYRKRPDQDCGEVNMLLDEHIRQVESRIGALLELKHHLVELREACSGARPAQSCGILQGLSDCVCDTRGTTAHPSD

- Variants of: B1
- assay name: sfGFP reporter fluorescence (15 h) (µM FITC); higher = stronger transcriptional activation
- experimental conditions: library round: Round 0; ligand: 1 µM Pb
Task for the reader: assign each of the following variants its reported sfGFP reporter fluorescence.
When you answer, write just the number.

Fill in sfGFP reporter fluorescence for record `I90H`
0.0898

Give reported sfGFP reporter fluorescence value for `C79Y`
0.0585

Note down sfGFP reporter fluorescence recorded for `N83G`
0.0748

Give sfGFP reporter fluorescence for the following variant: `C79Q`
0.0594

Provide measured sfGFP reporter fluorescence value, entry: `P75A`
0.0711

Quickly give me recorded sfGFP reporter fluorescence for `G128S`
0.0902

Look up and state reported sfGFP reporter fluorescence for `K104F`
0.117

Fill in sfGFP reporter fluorescence for record `V82T`
0.059

Consider the variant `V46C` and give its recorded sfGFP reporter fluorescence.
0.0781

Specify reported sfGFP reporter fluorescence for the variant shown: `G6F`
0.0603

Could you please provide reported sfGFP reporter fluorescence for `H89D` ? Thanks!
0.0669

# return recorded sfGFP reporter fluorescence for input `C55Q`
0.0588

Please indicate sfGFP reporter fluorescence recorded for `E43C`
0.0887

Look up and report measured sfGFP reporter fluorescence for this entry: `R111W`
0.0632

Give the value of sfGFP reporter fluorescence reported for the following: `R39E`
0.0634

Given `K104C` , respond with its sfGFP reporter fluorescence.
0.133

Supply reported sfGFP reporter fluorescence belonging to this variant: `M60T`
0.0621

Give the measured sfGFP reporter fluorescence for `E94P`
0.0533

Let me know recorded sfGFP reporter fluorescence for M60L L107C G128M , thanks.
4.98

Assign sfGFP reporter fluorescence to the following record: `M1A`
0.0715

Give a short answer stating reported sfGFP reporter fluorescence for P61N D64K G128I .
1.46

Look up sfGFP reporter fluorescence of `V17A` and report it.
0.0566

These data points were gathered from the supplement of paper PMC12783771.
